Data origin, for the record: PubChem BioAssay AID1745844

Tested on: rodent lifetime carcinogenesis bioassay, tumor incidence TD50
Assay: carcinogenic potency in animals, long-term in vivo studies, CPDB compilation (AID 1745844)
Conditions: rat; strain Sprague-Dawley; males; by gavage; site: Zymbal's gland; lesion: carcinoma; dosed 52 weeks; study length 127 weeks
ASSAY_READOUT: TD50 (mg/kg/day)

- C=CCl: 315

* * *

System: rodent lifetime carcinogenesis bioassay, tumor incidence TD50
Assay: carcinogenic potency in animals, long-term in vivo studies, CPDB compilation (AID 1745844)
Details: rat; strain Fischer 344; females; in drinking water; site: pharynx + tongue; lesion: squamous-cell carcinoma + squamous-cell papilloma; dosed 60 weeks; study length 60 weeks
ASSAY_READOUT: TD50

• Cc1cc(-c2ccc(N)c(C)c2)ccc1N = 3.2 mg/kg/day

* * *

System: rodent lifetime carcinogenesis bioassay, tumor incidence TD50
Experiment: carcinogenic potency in animals, long-term in vivo studies, CPDB compilation (AID 1745844)
Details: mouse; strain B6C3F1; males; by gavage; site: stomach; lesion: squamous-cell carcinoma; dosed 52 weeks; study length 83 weeks
ASSAY_READOUT: TD50

- C[C@]12CC[C@@H]3c4ccc(OC(=O)Cc5ccc(N(CCCl)CCCl)cc5)cc4CC[C@H]3[C@@H]1CC[C@@H]2OC(=O)Cc1ccc(N(CCCl)CCCl)cc1: 29 mg/kg/day

* * *

System: rodent lifetime carcinogenesis bioassay, tumor incidence TD50
Assay: carcinogenic potency in animals, long-term in vivo studies, CPDB compilation (AID 1745844)
Settings: mouse; strain B6C3F1; females; i.p.; site: uterus; lesion: adenocarcinoma, NOS; dosed 52 weeks; study length 85 weeks
ASSAY_READOUT: TD50

* CNNCc1ccc(C(=O)NC(C)C)cc1 | 0.253 mg/kg/day

* * *

Tested on: rodent lifetime carcinogenesis bioassay, tumor incidence TD50
Assay: carcinogenic potency in animals, long-term in vivo studies, CPDB compilation (AID 1745844)
Conditions: mouse; strain B6C3F1; females; in feed; site: lung; lesion: alveolar/bronchiolar adenoma + alveolar/bronchiolar carcinoma; dosed 77 weeks; study length 91 weeks
ASSAY_READOUT: TD50

• CNC(=S)N(C)C = 1260 mg/kg/day

* * *

System: rodent lifetime carcinogenesis bioassay, tumor incidence TD50
Assay: carcinogenic potency in animals, long-term in vivo studies, CPDB compilation (AID 1745844)
Conditions: rat; strain F344/DuCrj; males; in drinking water; site: kidney; lesion: several types; types named in the paper; dosed 52 weeks; study length 104 weeks
ASSAY_READOUT: TD50

- [O-][Br+2]([O-])O: 8.32 mg/kg/day

* * *

Test system: rodent lifetime carcinogenesis bioassay, tumor incidence TD50
Experiment: carcinogenic potency in animals, long-term in vivo studies, CPDB compilation (AID 1745844)
Conditions: mouse; strain ASH-CS1; males; in feed; site: lung; lesion: papillary adenoma; dosed 80 weeks; study length 80 weeks
Calls of active or inactive are those of the source. No rule for the calls is given here.
ASSAY_READOUT: TD50

- O=S(=O)(O)c1ccc(N=Nc2cc(S(=O)(=O)O)c3ccccc3c2O)c2ccccc12: 12300 mg/kg/day (inactive)

* * *

System: rodent lifetime carcinogenesis bioassay, tumor incidence TD50
Assay: carcinogenic potency in animals, long-term in vivo studies, CPDB compilation (AID 1745844)
Details: mouse; strain CDF1; females; in feed; site: liver; lesion: hepatocellular carcinoma; dosed 67 weeks; study length 67 weeks
ASSAY_READOUT: TD50 (mg/kg/day)

- Cc1cccn2c1nc1ccc(N)nc12: 18.5
